- Tested on: A. terreus 49
- runDescription: Minimum inhibitory concentration, YAG medium
- Format: cell-based, Aspergillus terreus
- conditionLabel: banded MIC grade
// values below are reported MIC grade, A. TERREUS 49, YAG media

| entrySmiles | MIC grade, A. TERREUS 49, YAG media |
| --- | --- |
| NC1=NN=C(CCCCOCc2cc(F)ccc2F)CS1 | 4 (4: <0.2 mg/L) |
| NC1=NN=C(CCCCOCc2c(F)cccc2Cl)CS1 | 3 (3: 0.2-1 mg/L) |
| NC1=NN=C(CCOCc2ccc(-c3ccccc3)cc2)CS1 | 3 (3: 0.2-1 mg/L) |
| COCCCCCC1=NN=C(N)SC1 | 4 (4: <0.2 mg/L) |
| CCCCc1ccc(OCCCCCC2=NN=C(N)SC2)cc1 | 2 (2: 1-5 mg/L) |
| CCc1ccc(OCCCCCC2=NN=C(N)SC2)cc1 | 4 (4: <0.2 mg/L) |
| CCCCOC(=O)c1ccc(C2=NN=C(N)SC2)cc1 | 2 (2: 1-5 mg/L) |
| NC1=NN=C(CCCCOCc2ccc(F)cc2)CS1 | 2 (2: 1-5 mg/L) |
| NC1=NN=C(CCCCSCc2ccc(Cl)cc2)CS1 | 4 (4: <0.2 mg/L) |
| CCCCc1ccc(COCCCCC2=NN=C(N)SC2)cc1 | 2 (2: 1-5 mg/L) |
| NC1=NN=C(CCCCC(=O)Nc2ccccc2)CS1 | 2 (2: 1-5 mg/L) |
| N#Cc1ccc(C2=NN=C(N)SC2)cc1 | 2 (2: 1-5 mg/L) |
| NC1=NN=C(CCOc2ccc(-c3ccccc3)cc2)CS1 | 2 (2: 1-5 mg/L) |
